# maps each entry to its kobs/I
Biological target: Recombinant Rhinovirus 3C protease serotype 14 (Human rhinovirus 14, UniProt P03303)
Construct: Recombinant Rhinovirus 3C proteases from serotypes 14, 16, and 2; made in house
Sequence (P03303 1538-1719): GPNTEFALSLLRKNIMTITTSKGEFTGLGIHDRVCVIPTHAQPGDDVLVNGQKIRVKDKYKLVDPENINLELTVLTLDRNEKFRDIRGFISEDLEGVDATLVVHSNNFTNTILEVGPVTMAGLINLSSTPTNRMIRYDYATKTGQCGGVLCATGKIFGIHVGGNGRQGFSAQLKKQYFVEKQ
Experiment: biochemical

Answered cases to consult:
Entry CCOC(=O)/C=C/C(CCC(N)=O)NC(=O)C(CC(=O)C(CC(C)C)NC(=O)SCc1ccccc1)Cc1ccccc1 (stereo not shown) [Compound 6] , Recombinant Rhinovirus 3C protease serotype 14 (Human rhinovirus 14, UniProt P03303) data, kobs/I value: 87,600 M^−1sec^−1

Entry CCOC(=O)/C=C/[C@H](CCC(N)=O)NC(=O)[C@@H](CC(=O)[C@H](CC(C)C)NC(=O)SCC)Cc1ccccc1 [Compound 2] , Recombinant Rhinovirus 3C protease serotype 14 (Human rhinovirus 14, UniProt P03303) data, kobs/I value: 47,000 M^−1sec^−1

Entry CCOC(=O)/C=C/C(CCC(N)=O)NC(=O)C(CC(=O)C(NC(=O)SCc1ccccc1)C(C)C)Cc1ccccc1 (stereo not shown) [Compound 5] , Recombinant Rhinovirus 3C protease serotype 14 (Human rhinovirus 14, UniProt P03303) data, kobs/I value: 500,000 M^−1sec^−1

---
Entry CCOC(=O)/C=C/[C@H](CCC(N)=O)NC(=O)[C@@H](CC(=O)[C@H](CC(C)C)NC(=O)SC1CCCC1)Cc1ccccc1 [Compound 8] , Recombinant Rhinovirus 3C protease serotype 14 (Human rhinovirus 14, UniProt P03303) data, kobs/I value: 55,700 M^−1sec^−1

Entry CCOC(=O)/C=C/[C@H](CCC(N)=O)NC(=O)[C@@H](CC(=O)[C@@H](NC(=O)SCC)C(C)C)Cc1ccccc1 [Compound 4] , Recombinant Rhinovirus 3C protease serotype 14 (Human rhinovirus 14, UniProt P03303) data, kobs/I value: 180,000 M^−1sec^−1

Entry CCOC(=O)/C=C/C(CCC(N)=O)NC(=O)C(CC(=O)C(NC(=O)SC1CCCC1)C(C)C)Cc1ccc(C)cc1 (stereo not shown) [Compound 11] , Recombinant Rhinovirus 3C protease serotype 14 (Human rhinovirus 14, UniProt P03303) data, kobs/I value: 850,000 M^−1sec^−1

Entry CCOC(=O)/C=C/[C@H](CCC(N)=O)NC(=O)[C@@H](CC(=O)[C@@H](NC(=O)SCC)C(C)C)Cc1ccc(C)cc1 [Compound 10] , Recombinant Rhinovirus 3C protease serotype 14 (Human rhinovirus 14, UniProt P03303) data, kobs/I value: 440,000 M^−1sec^−1

----------
Test: Cytotoxicity in mock-infected HI-HeLa cells (XTT, antirhinoviral assay)
Assay type: cell-based
Settings: human; mock-infected HI-HeLa cells; line for HRV serotype-14
ASSAY READOUT: CC50 at 2 days (µM)
Give just the number in µM; leave the unit off.

response.value for CC(C)CC(NC(=O)SCc1ccccc1)C(=O)CC(Cc1ccccc1)C(=O)NC(C=CC(=O)N1CCc2ccccc21)CCC(N)=O (centres unmarked) (field: CC50 at 2 days) = 50.1

----------
Target: Recombinant Rhinovirus 3C protease serotype 14 (Human rhinovirus 14, UniProt P03303)
Construct: Recombinant Rhinovirus 3C proteases from serotypes 14, 16, and 2; made in house
Assay: biochemical
Details: RVP serotype-14; progress curves, enzyme start experiments
ASSAY READOUT: kobs/I

Answered cases to consult:
response.value for CCOC(=O)/C=C/C(CCC(N)=O)NC(=O)C(CC(=O)C(CC(C)C)NC1CCCC1)Cc1ccc(F)cc1 (centres unmarked) [Compound 19] (field: kobs/I) = 67,200 M^−1sec^−1

response.value for CCOC(=O)/C=C/C(CCC(N)=O)NC(=O)C(CC(=O)C(NC(=O)CC1CCCC1)C(C)C)Cc1ccc(C)cc1 (centres unmarked) [Compound 23] (field: kobs/I) = 36,500 M^−1sec^−1

response.value for CCOC(=O)/C=C/C(CCC(N)=O)NC(=O)C(CC(=O)C(Cc1ccccc1)NC(=O)SC1CCCC1)Cc1ccc(C)cc1 (centres unmarked) [Compound 12] (field: kobs/I) = 404,000 M^−1sec^−1

response.value for CCOC(=O)/C=C/C(CCC(N)=O)NC(=O)C(CC(=O)C(Cc1ccccc1)NC(=O)SC1CCCC1)Cc1ccc(F)cc1 (centres unmarked) [Compound 18] (field: kobs/I) = 127,400 M^−1sec^−1

Moving on to another molecule below.
response.value for CCOC(=O)/C=C/[C@H](CCC(N)=O)NC(=O)[C@@H](CC(=O)[C@@H](NC(=O)SCC)C(C)C)Cc1ccc(C(F)(F)F)cc1 [Compound 15] (field: kobs/I) = 127,000 M^−1sec^−1

----------
Test system: HRV serotype-14
Test: Antirhinoviral HI-HeLa cell culture assay (XTT cell protection), HRV-14
Type: cell-based, human rhinovirus
Conditions: HRV serotype-14, HI-HeLa cells, m.o.i. 0.13, two days, XTT; read-out: EC50
ASSAY READOUT: pEC50
The read-out pEC50 is expressed as -log10 of concentration in moles per litre.

Entry CCOC(=O)/C=C/[C@H](CCC(N)=O)NC(=O)[C@@H](CC(=O)[C@@H](NC(=O)SCC)C(C)C)Cc1ccc(C(F)(F)F)cc1 , HRV serotype-14 data, pEC50 value: 7.20

Entry CCOC(=O)/C=C/C(CCC(N)=O)NC(=O)C(CC(=O)C(NC(=O)SC1CCCC1)C(C)(C)C)Cc1ccccc1 (stereo not shown) , HRV serotype-14 data, pEC50 value: 7.30

Entry CCOC(=O)/C=C/C(CCC(N)=O)NC(=O)C(CC(=O)C(NC(=O)SC1CCCC1)C(C)C)Cc1ccc(F)cc1 (stereo not shown) , HRV serotype-14 data, pEC50 value: 7.70

Entry Cc1cc(CCCCCCCOc2ccc(C3=N[C@@H](C)CO3)cc2)on1 [WIN 52084, reference compound] , HRV serotype-14 data, pEC50 value: 7.15

Entry CC(=O)N1CC/C(=C\C(CCC(N)=O)NC(=O)C(CC(=O)C(NC(=O)SC2CCCC2)C(C)C)Cc2ccc(C)cc2)C1=O (stereo not shown) , HRV serotype-14 data, pEC50 value: 7.57

----------
# maps each entry to its kobs/I
Biological target: Recombinant Rhinovirus 3C protease serotype 16 (Human rhinovirus 16)
Sequence (Q82122 1511-1693): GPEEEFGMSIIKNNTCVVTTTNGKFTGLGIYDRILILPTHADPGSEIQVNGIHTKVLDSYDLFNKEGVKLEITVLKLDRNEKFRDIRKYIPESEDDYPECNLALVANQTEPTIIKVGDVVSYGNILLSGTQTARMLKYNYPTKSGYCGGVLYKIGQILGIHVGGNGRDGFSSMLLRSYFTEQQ
Format: biochemical
Method: Stock solutions (50 mM, in DMSO) of various compounds were prepared; dilutions were in the same solvent. […] RVP activity is measured in the fluorescence resonance energy transfer assay. […] In the uncleavaed peptide, the EDANS fluorescence was quenched by the proximal DABCYL moiety. When the peptide was cleaved, the quenching was relieved, and activity was measured as an increase in fluorescence signal. […]

Answered cases to consult:
response.value for CCOC(=O)/C=C/[C@H](CCC(N)=O)NC(=O)[C@@H](CC(=O)[C@H](CC(C)C)NC(=O)SC1CCCC1)Cc1ccccc1 (field: kobs/I) = 14,200 M^−1sec^−1

response.value for CCOC(=O)/C=C/[C@H](CCC(N)=O)NC(=O)[C@@H](CC(=O)[C@H](CC(C)C)NC(=O)SCC)Cc1ccccc1 (field: kobs/I) = 10,410 M^−1sec^−1

response.value for CCOC(=O)/C=C/C(CCC(N)=O)NC(=O)C(CC(=O)C(NC(=O)SCc1ccccc1)C(C)C)Cc1ccccc1 (centres unmarked) (field: kobs/I) = 89,700 M^−1sec^−1

response.value for CCOC(=O)/C=C/C(CCC(N)=O)NC(=O)C(CC(=O)C(CC(C)C)NC(=O)SCc1ccccc1)Cc1ccccc1 (centres unmarked) (field: kobs/I) = 23,230 M^−1sec^−1

Moving on to another molecule below.
response.value for CCOC(=O)/C=C/[C@H](CCC(N)=O)NC(=O)[C@@H](CC(=O)[C@@H](NC(=O)SCC)C(C)C)Cc1ccccc1 (field: kobs/I) = 34,600 M^−1sec^−1

----------
# maps each entry to its CC50
Test system: HI-HeLa cells
Assay: Cytotoxicity in uninfected HI-HeLa cells (XTT, anticoxsackieviral assay)
Format: cell-based
Details: one day

Entry CCOC(=O)/C=C/C(CCC(N)=O)NC(=O)C(CC(=O)C(NC(=O)SC1CCCC1)C(C)C)Cc1ccccc1 (centres unmarked) , HI-HeLa cells data, CC50 value: > 10 µM

---
Entry Cc1cc(CCCCCOc2c(Cl)cc(C3=NCCO3)cc2Cl)on1 [WIN 54954, reference compound] , HI-HeLa cells data, CC50 value: > 100 µM

----------
Test system: HI-HeLa cells
Experiment: Cytotoxicity in mock-infected HI-HeLa cells (XTT, antirhinoviral assay)
Format: cell-based
Conditions: mock-infected HI-HeLa cells; line for HRV serotype 1A; read-out: CC50
ASSAY READOUT: CC50

response.value for CCOC(=O)/C=C/C(CCC(N)=O)NC(=O)C(CC(=O)C(NC(=O)SC1CCCC1)C(C)C)Cc1ccc(C)cc1 (centres unmarked) [Compound 11] (field: CC50) = > 3000 nM

response.value for CCOC(=O)/C=C/C(CCC(N)=O)NC(=O)C(CC(=O)C(NC(=O)SC1CCCC1)C(C)(C)C)Cc1ccccc1 (centres unmarked) [Compound 22] (field: CC50) = > 32000 nM

response.value for CCOC(=O)/C=C/[C@H](CCC(N)=O)NC(=O)[C@@H](CC(=O)[C@@H](NC(=O)OC1CCCC1)C(C)C)Cc1ccc(F)cc1 [Compound 25] (field: CC50) = > 3000 nM

---
response.value for CCOC(=O)/C=C/C(CCC(N)=O)NC(=O)C(CC(=O)C(CC(C)C)NC1CCCC1)Cc1ccc(F)cc1 (centres unmarked) [Compound 19] (field: CC50) = > 3000 nM

response.value for CCOC(=O)/C=C/C(CCC(N)=O)NC(=O)C(CC(=O)C(CC(C)C)NC(=O)SC1CCCC1)Cc1ccc(C)cc1 (centres unmarked) [Compound 21] (field: CC50) = > 10000 nM
